Assay: self-splicing fitness, log relative to wild type (ln ratio); higher = more splicing; Tetrahymena group I intron in knt gene, E. coli kanamycin selection, DiMSum; sequences stand for … in CUCUCU…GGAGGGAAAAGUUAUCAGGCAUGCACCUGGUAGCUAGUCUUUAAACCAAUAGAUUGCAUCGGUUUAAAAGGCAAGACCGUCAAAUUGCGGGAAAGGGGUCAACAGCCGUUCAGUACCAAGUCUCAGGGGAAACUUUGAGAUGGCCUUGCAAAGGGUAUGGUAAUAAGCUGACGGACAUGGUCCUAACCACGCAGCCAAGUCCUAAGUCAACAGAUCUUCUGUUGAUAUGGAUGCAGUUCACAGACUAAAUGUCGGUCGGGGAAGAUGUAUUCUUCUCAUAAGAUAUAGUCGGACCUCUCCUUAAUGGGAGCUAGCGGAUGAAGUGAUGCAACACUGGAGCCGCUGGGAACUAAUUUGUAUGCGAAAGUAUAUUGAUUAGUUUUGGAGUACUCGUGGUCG;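 also: selection with 25 µg/mL kanamycin versus none on LB agar overnight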
Conditions: 30 °C
Listing of entries alongside the reported self-splicing fitness (ln).

These solved cases illustrate the format of a correct answer.
> print(dat)
          sequence.code  reported
1  GAGAAGCAAUAUUACGAGUA     -2.04
2  AGCUAGCAAUAUUACGGCGC      -1.1
3  AUCUAGCAAUAUUACGCAUC     -4.16
4  CGACAGCAAUAUUACGACGU     -1.07
5  AUCCAGCAAUAUUACGCAAG     -2.75

INPUT: State its self-splicing fitness (ln): CUUAAGCAAUAUUACGGUCG
OUTPUT: 0.0331

INPUT: Recall and state the measured self-splicing fitness (ln) for UGGCAGCAAUAUUACGAAUC .
OUTPUT: -2.3

---

Assay: self-splicing fitness, log relative to wild type (ln ratio); higher = more splicing; Tetrahymena group I intron in knt gene, E. coli kanamycin selection, DiMSum; sequences stand for … in CUCUCU…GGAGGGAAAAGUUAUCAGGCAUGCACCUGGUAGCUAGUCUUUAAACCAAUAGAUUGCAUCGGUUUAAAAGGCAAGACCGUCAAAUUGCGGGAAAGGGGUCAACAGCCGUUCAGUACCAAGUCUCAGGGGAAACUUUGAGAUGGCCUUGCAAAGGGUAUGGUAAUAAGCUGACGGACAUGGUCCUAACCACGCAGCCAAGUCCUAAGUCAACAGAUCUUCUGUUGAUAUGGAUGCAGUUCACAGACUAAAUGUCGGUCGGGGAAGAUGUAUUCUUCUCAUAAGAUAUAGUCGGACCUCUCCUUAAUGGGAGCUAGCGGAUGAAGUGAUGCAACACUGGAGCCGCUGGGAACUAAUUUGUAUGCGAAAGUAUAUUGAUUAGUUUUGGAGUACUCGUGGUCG
Conditions: 30 °C
Readout: self-splicing fitness (ln)
Reply briefly: the number, and no unit.

> print(dat)
          sequence.code                     readout  reported
1  UCUCAGCAAUAUUACGAGUC  self-splicing fitness (ln)     -3.98

INPUT: Tell us which self-splicing fitness (ln) value is on record for CUUUAGCAAUAUUACGUGUG
OUTPUT: -1.6

INPUT: Return value of self-splicing fitness (ln) for input UUUUAGCAAUAUUACGGGAA , no commentary.
OUTPUT: -1.16

INPUT: Consider the sequence AGUAAGCAAUAUUACGGACC and give its recorded self-splicing fitness (ln).
OUTPUT: -0.0938

INPUT: Could you please provide reported self-splicing fitness (ln) for CUUGAGCAAUAUUACGUCGG ? Thanks!
OUTPUT: -2.62

INPUT: Dear colleague, please send me the reported self-splicing fitness (ln) for GGUUAGCAAUAUUACGUGAU when you can.
OUTPUT: -2.18

INPUT: Tell us which self-splicing fitness (ln) value is on record for UUGCAGCAAUAUUACGUCUU
OUTPUT: -0.0818

INPUT: Provide self-splicing fitness (ln) value for the following sequence: ACUAAGCAAUAUUACGUGGA
OUTPUT: -2.99

Values compiled from the supplement of paper PMC7877785.
